- Assayed target: FGFR1 (UniProt P11362)
- Sequence (P11362 whole entry, looked up): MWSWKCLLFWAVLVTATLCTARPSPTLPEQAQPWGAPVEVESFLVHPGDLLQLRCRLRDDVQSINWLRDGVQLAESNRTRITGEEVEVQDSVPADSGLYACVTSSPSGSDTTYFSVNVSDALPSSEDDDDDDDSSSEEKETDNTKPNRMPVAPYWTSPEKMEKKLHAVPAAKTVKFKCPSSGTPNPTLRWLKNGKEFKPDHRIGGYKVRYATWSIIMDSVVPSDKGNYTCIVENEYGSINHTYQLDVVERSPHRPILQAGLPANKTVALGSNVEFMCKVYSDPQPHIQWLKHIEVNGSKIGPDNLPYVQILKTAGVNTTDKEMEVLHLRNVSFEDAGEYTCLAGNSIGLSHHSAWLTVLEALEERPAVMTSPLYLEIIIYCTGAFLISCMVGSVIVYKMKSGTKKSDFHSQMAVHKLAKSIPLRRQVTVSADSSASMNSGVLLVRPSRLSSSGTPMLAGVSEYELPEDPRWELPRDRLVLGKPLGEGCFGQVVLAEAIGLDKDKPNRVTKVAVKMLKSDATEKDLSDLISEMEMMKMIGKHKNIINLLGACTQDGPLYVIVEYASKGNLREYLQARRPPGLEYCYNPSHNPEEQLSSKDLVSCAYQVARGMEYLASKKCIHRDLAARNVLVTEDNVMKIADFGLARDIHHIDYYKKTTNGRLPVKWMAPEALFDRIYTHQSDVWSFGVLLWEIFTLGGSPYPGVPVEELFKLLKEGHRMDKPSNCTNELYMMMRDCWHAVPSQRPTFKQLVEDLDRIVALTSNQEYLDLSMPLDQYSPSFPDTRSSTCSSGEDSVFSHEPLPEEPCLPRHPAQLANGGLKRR
- Method summary: phosphorylation enrichment, bacterial display (enrichment ratio); higher = better substrate or ligand; peptides without Tyr show the background;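 also: 11-residue human phosphosite peptides and single-mutation variants displayed on the E. coli surface, counted by deep sequencing, each peptide's frequency after selection divided by its frequency in the unselected input library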;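 also: frequency after pTyr selection over input frequency; kinase dosed for 20-30% of maximal phosphorylation in three min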
Measurement label: phosphorylation enrichment
// keep it numeric: no unit symbol after the value

Q: Dear colleague, I am looking for the recorded phosphorylation enrichment of the following sequence: GHEYIYVDRMQ [PDGFRB_Y581_P584R]
A: 5.2

Q: Dear colleague, I am looking for the recorded phosphorylation enrichment of the following sequence: VEKGSYSALRA [ABCC2_Y845_L849R]
A: 0.356

Q: Dear colleague, I am looking for the recorded phosphorylation enrichment of the following sequence: WEQELYSQLVY [WAS_Y102]
A: 8.38

Q: Dear colleague, I am looking for the recorded phosphorylation enrichment of the following sequence: HLTLVYGGIFL [FBP1_Y259_R255L]
A: 0.745

Q: Dear colleague, I am looking for the recorded phosphorylation enrichment of the following sequence: LSSEMCVKSFT [F5_Y2149_Y2149C_YF]
A: 1.07

Q: Dear colleague, I am looking for the recorded phosphorylation enrichment of the following sequence: GEETDYTPVWC [UROD_Y30]
A: 0.655

Q: Dear colleague, I am looking for the recorded phosphorylation enrichment of the following sequence: FQRLRYIKQLG [SAMHD1_Y146]
A: 0.42

Q: Dear colleague, I am looking for the recorded phosphorylation enrichment of the following sequence: RGLQVYHKRNA [LRP2_Y2010_R2012K]
A: 0.433

Q: Dear colleague, I am looking for the recorded phosphorylation enrichment of the following sequence: ASYGPYTRVQS [FOXL2_Y258]
A: 0.422

Q: Dear colleague, I am looking for the recorded phosphorylation enrichment of the following sequence: YGLQAYTKVKT [ALDH2_Y502_E504K]
A: 0.45

Q: Dear colleague, I am looking for the recorded phosphorylation enrichment of the following sequence: AFDNLYFWDQD [ERBB2_Y1221_YF]
A: 6.87

Q: Dear colleague, I am looking for the recorded phosphorylation enrichment of the following sequence: GYEEAYSVFKK [PAFAH1B1_Y28]
A: 0.491

Q: Dear colleague, I am looking for the recorded phosphorylation enrichment of the following sequence: ASKEPYYVRCI [MYO1D_Y585]
A: 0.686

Q: Dear colleague, I am looking for the recorded phosphorylation enrichment of the following sequence: GAPATYEGDAR [CACNA1A_Y1013]
A: 0.543

----------
- Assayed target: Fes (UniProt P07332)
- Sequence (P07332 whole entry, looked up): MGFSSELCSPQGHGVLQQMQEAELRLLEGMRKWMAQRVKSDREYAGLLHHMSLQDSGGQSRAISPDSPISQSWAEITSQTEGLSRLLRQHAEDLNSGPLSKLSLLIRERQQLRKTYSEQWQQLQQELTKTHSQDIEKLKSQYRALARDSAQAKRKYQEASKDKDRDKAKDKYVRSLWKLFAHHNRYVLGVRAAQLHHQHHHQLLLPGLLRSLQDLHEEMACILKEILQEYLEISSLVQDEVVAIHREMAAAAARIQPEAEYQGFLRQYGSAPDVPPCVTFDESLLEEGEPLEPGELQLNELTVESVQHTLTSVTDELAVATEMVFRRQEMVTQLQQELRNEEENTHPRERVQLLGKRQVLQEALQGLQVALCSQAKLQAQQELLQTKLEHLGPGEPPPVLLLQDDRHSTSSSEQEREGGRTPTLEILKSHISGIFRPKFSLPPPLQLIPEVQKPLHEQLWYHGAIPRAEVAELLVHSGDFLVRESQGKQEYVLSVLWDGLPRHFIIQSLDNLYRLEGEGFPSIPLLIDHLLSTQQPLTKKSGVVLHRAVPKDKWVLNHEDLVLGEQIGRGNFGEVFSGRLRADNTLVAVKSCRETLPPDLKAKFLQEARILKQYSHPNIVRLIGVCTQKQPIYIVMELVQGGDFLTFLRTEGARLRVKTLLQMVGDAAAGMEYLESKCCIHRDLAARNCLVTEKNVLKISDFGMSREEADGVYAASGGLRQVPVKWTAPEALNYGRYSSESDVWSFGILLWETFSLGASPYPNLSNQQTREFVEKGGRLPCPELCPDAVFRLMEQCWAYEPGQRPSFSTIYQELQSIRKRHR
- Method summary: phosphorylation enrichment, bacterial display (enrichment ratio); higher = better substrate or ligand; peptides without Tyr show the background
Provide the reported phosphorylation enrichment of each item.
// keep it numeric: no unit symbol after the value

Q: Dear colleague, I am looking for the recorded phosphorylation enrichment of the following sequence: LKLIQYHLIQQ [AKAP4_Y554_T557I]
A: 1.67

Q: Dear colleague, I am looking for the recorded phosphorylation enrichment of the following sequence: FLLTVYSIFSK [SGCE_Y38]
A: 1.05

Q: Dear colleague, I am looking for the recorded phosphorylation enrichment of the following sequence: ADKSAYLMGVN [MYH7_Y386_L390V]
A: 0.661

Q: Dear colleague, I am looking for the recorded phosphorylation enrichment of the following sequence: ATVLNYLPKCI [A2M_Y817]
A: 0.987

Q: Dear colleague, I am looking for the recorded phosphorylation enrichment of the following sequence: FDDIACIRKTL [PIK3CA_Y1021_Y1021C]
A: 1.03

Q: Dear colleague, I am looking for the recorded phosphorylation enrichment of the following sequence: NKVQFYIPDMN [NCR1_Y84_K82Q]
A: 0.984

Q: Dear colleague, I am looking for the recorded phosphorylation enrichment of the following sequence: RVGNMYVRGLS [ABCG8_Y209]
A: 0.839

Q: Dear colleague, I am looking for the recorded phosphorylation enrichment of the following sequence: KGVDRYNPENL [EIF3K_Y21_I18V]
A: 0.466

Q: Dear colleague, I am looking for the recorded phosphorylation enrichment of the following sequence: EFLHKYKGFKI [SYNE1_Y6953_Q6951H_YF]
A: 0.765

Q: Dear colleague, I am looking for the recorded phosphorylation enrichment of the following sequence: METKGYHSLPE [NR3C2_Y6]
A: 1.01

Q: Dear colleague, I am looking for the recorded phosphorylation enrichment of the following sequence: GGGGGYNRSSG [FUS_Y232]
A: 0.503

Q: Dear colleague, I am looking for the recorded phosphorylation enrichment of the following sequence: VFPIDYYFPPQ [AR_Y552_L548F]
A: 0.914

Q: Dear colleague, I am looking for the recorded phosphorylation enrichment of the following sequence: VKMLLYTEVTR [GDI1_Y93]
A: 1.43

Q: Dear colleague, I am looking for the recorded phosphorylation enrichment of the following sequence: ADCRFYTFPQM [GAMT_Y223_A224T_YF]
A: 1.48

Q: Dear colleague, I am looking for the recorded phosphorylation enrichment of the following sequence: FPLAEYTEVKT [ALDH1A3_Y497_A493P_YF]
A: 0.968

Q: Dear colleague, I am looking for the recorded phosphorylation enrichment of the following sequence: PLGKDYRKAEG [MAP1A_Y1909]
A: 0.941

Q: Dear colleague, I am looking for the recorded phosphorylation enrichment of the following sequence: MDDKEYFSVHN [MET_Y1234_Y1230D_YF]
A: 1.03

Q: Dear colleague, I am looking for the recorded phosphorylation enrichment of the following sequence: MSRDIYSTDYY [NTRK1_Y676]
A: 0.933

Q: Dear colleague, I am looking for the recorded phosphorylation enrichment of the following sequence: SGSWSYNTSTE [SELE_Y24_A21S]
A: 1.07

Q: Dear colleague, I am looking for the recorded phosphorylation enrichment of the following sequence: DISEPYKVYRI [IRF8_Y107]
A: 0.88

Q: Dear colleague, I am looking for the recorded phosphorylation enrichment of the following sequence: YPLELYERVRI [PRKCG_Y312_M317I]
A: 1.01

Q: Dear colleague, I am looking for the recorded phosphorylation enrichment of the following sequence: SPRDTYSDRSG [CTPS1_Y567]
A: 0.572

Q: Dear colleague, I am looking for the recorded phosphorylation enrichment of the following sequence: SFHSSYSEIKD [DCLRE1C_Y322]
A: 0.744

Q: Dear colleague, I am looking for the recorded phosphorylation enrichment of the following sequence: RNFVRYVQGLK [VWF_Y1400]
A: 0.599

Q: Dear colleague, I am looking for the recorded phosphorylation enrichment of the following sequence: RGLQVYHKRNA [LRP2_Y2010_R2012K]
A: 0.985

Q: Dear colleague, I am looking for the recorded phosphorylation enrichment of the following sequence: QSSALYEDHYL [ASS1_Y83_R86H]
A: 1.18

Q: Dear colleague, I am looking for the recorded phosphorylation enrichment of the following sequence: LLARLYRGQAL [FGFR4_Y390_G388R]
A: 0.887

Q: Dear colleague, I am looking for the recorded phosphorylation enrichment of the following sequence: SGIFQYNIAKF [FOXL2_Y83_I84N_YF]
A: 1.01

Q: Dear colleague, I am looking for the recorded phosphorylation enrichment of the following sequence: KNDSNYVVKGN [KIT_Y823]
A: 0.635

Attribution: the supplement of paper PMC10065799
